These entries and their values trace back to ChEMBL document CHEMBL5705888.

- measurement target: Ribosomal protein S6 kinase alpha-5 (Homo sapiens)
- test name: Inhibition of MSK1 (unknown origin) at 1 uM incubated for 30 mins in presence of [gamma-33P]ATP by multidrop micro reagent based assay relative to control; values are per cent of control
Item-by-item account of residual activity
assay readout: residual activity (%)

molecule	observed result
CCN(CC)CCNC(=O)c1c(C)[nH]c(/C=C2\C(=O)Nc3ccc(F)cc32)c1C	60
Cc1cncc2cccc(S(=O)(=O)N3CCCNC[C@@H]3C)c12	39
CCn1c(-c2nonc2N)nc2cnc(Oc3cccc(NC(=O)c4ccc(OCCN5CCOCC5)cc4)c3)cc21 [GSK-269962A]	1
CC1=C(C(=O)Nc2cc3cn[nH]c3cc2F)C(c2ccc(C(F)(F)F)cc2)CC(=O)N1 (centres undefined)	20

----------
- measurement target: Calcium/calmodulin-dependent protein kinase kinase 2 (Homo sapiens) (UniProt Q96RR4)
- Sequence (Q96RR4 2-588 limits assumed): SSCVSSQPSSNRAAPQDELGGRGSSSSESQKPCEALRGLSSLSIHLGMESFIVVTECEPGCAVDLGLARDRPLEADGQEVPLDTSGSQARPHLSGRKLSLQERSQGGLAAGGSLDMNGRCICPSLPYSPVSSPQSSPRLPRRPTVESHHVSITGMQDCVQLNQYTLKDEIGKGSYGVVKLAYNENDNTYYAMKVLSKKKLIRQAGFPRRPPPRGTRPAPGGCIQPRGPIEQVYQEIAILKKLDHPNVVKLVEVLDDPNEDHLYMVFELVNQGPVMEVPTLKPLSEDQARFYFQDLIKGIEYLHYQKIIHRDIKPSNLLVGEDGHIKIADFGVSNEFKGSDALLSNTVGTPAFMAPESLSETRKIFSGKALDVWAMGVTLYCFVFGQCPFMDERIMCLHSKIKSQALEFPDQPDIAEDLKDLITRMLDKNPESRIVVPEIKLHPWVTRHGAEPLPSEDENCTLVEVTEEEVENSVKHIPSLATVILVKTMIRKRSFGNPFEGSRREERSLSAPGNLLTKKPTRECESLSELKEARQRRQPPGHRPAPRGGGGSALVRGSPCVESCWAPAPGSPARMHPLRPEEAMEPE
- test name: Inhibition of CaMKKbeta (unknown origin) at 1 uM incubated for 30 mins in presence of [gamma-33P]ATP by multidrop micro reagent based assay relative to control; values are per cent of control
Item-by-item account of residual activity

compound	residual activity (%)
CCN(CC)CCNC(=O)c1c(C)[nH]c(/C=C2\C(=O)Nc3ccc(F)cc32)c1C	39
Cc1cncc2cccc(S(=O)(=O)N3CCCNC[C@@H]3C)c12	81
CC1=C(C(=O)Nc2cc3cn[nH]c3cc2F)C(c2ccc(C(F)(F)F)cc2)CC(=O)N1 (centres undefined)	100
CCn1c(-c2nonc2N)nc2cnc(Oc3cccc(NC(=O)c4ccc(OCCN5CCOCC5)cc4)c3)cc21 [GSK-269962A]	98

----------
- measurement target: Ribosomal protein S6 kinase alpha-1 (Homo sapiens)
- test name: Inhibition of RSK1 (unknown origin) at 1 uM incubated for 30 mins in presence of [gamma-33P]ATP by multidrop micro reagent based assay relative to control; values are per cent of control
Item-by-item account of residual activity

compound	residual activity (%)
CCn1c(-c2nonc2N)nc2cnc(Oc3cccc(NC(=O)c4ccc(OCCN5CCOCC5)cc4)c3)cc21 [GSK-269962A]	12
CCN(CC)CCNC(=O)c1c(C)[nH]c(/C=C2\C(=O)Nc3ccc(F)cc32)c1C	78
Cc1cncc2cccc(S(=O)(=O)N3CCCNC[C@@H]3C)c12	57
CC1=C(C(=O)Nc2cc3cn[nH]c3cc2F)C(c2ccc(C(F)(F)F)cc2)CC(=O)N1 (centres undefined)	20

----------
- measurement target: Serine/threonine-protein kinase TBK1 (Homo sapiens)
- test name: Inhibition of TBK1 (unknown origin) at 1 uM incubated for 30 mins in presence of [gamma-33P]ATP by multidrop micro reagent based assay relative to control; values are per cent of control
assay readout: residual activity (%)

compound	assay readout	observed result
CC1=C(C(=O)Nc2cc3cn[nH]c3cc2F)C(c2ccc(C(F)(F)F)cc2)CC(=O)N1 (centres undefined)	residual activity	101
Cc1cncc2cccc(S(=O)(=O)N3CCCNC[C@@H]3C)c12	residual activity	98
CCN(CC)CCNC(=O)c1c(C)[nH]c(/C=C2\C(=O)Nc3ccc(F)cc32)c1C	residual activity	54
CCn1c(-c2nonc2N)nc2cnc(Oc3cccc(NC(=O)c4ccc(OCCN5CCOCC5)cc4)c3)cc21 [GSK-269962A]	residual activity	77

----------
- measurement target: Leucine-rich repeat serine/threonine-protein kinase 2 (Homo sapiens)
- test name: Inhibition of LRRK2 in human Flp-In-T-REx-293 cells harboring GFP-tagged constitutively active G14V-Rho mutant assessed as inhibition of ERM phosphorylation at 10 uM incubated for 1 hr in presence of LRRKtide by immunoblot analysis
- Type: cell-based
Activity calls are given as the source filed them. The calls are words filed in the database; no cut-off is given here.
assay readout: inhibition

compound	assay readout	observed result
Cc1cncc2cccc(S(=O)(=O)N3CCCNC[C@@H]3C)c12	inhibition	inactive
CCN(CC)CCNC(=O)c1c(C)[nH]c(/C=C2\C(=O)Nc3ccc(F)cc32)c1C	inhibition	inactive
CC1=C(C(=O)Nc2cc3cn[nH]c3cc2F)C(c2ccc(C(F)(F)F)cc2)CC(=O)N1 (stereo not given)	inhibition	inactive
C[C@@H](N)[C@H]1CC[C@H](C(=O)Nc2ccncc2)CC1	inhibition	inactive
CCn1c(-c2nonc2N)nc2cnc(Oc3cccc(NC(=O)c4ccc(OCCN5CCOCC5)cc4)c3)cc21 [GSK-269962A]	inhibition	inactive

----------
Item-by-item account of IC50
- measurement target: Leucine-rich repeat serine/threonine-protein kinase 2 (Homo sapiens, UniProt Q5S007, G2019S)
- Sequence (Q5S007 whole entry G2019S, the tested form may be a part): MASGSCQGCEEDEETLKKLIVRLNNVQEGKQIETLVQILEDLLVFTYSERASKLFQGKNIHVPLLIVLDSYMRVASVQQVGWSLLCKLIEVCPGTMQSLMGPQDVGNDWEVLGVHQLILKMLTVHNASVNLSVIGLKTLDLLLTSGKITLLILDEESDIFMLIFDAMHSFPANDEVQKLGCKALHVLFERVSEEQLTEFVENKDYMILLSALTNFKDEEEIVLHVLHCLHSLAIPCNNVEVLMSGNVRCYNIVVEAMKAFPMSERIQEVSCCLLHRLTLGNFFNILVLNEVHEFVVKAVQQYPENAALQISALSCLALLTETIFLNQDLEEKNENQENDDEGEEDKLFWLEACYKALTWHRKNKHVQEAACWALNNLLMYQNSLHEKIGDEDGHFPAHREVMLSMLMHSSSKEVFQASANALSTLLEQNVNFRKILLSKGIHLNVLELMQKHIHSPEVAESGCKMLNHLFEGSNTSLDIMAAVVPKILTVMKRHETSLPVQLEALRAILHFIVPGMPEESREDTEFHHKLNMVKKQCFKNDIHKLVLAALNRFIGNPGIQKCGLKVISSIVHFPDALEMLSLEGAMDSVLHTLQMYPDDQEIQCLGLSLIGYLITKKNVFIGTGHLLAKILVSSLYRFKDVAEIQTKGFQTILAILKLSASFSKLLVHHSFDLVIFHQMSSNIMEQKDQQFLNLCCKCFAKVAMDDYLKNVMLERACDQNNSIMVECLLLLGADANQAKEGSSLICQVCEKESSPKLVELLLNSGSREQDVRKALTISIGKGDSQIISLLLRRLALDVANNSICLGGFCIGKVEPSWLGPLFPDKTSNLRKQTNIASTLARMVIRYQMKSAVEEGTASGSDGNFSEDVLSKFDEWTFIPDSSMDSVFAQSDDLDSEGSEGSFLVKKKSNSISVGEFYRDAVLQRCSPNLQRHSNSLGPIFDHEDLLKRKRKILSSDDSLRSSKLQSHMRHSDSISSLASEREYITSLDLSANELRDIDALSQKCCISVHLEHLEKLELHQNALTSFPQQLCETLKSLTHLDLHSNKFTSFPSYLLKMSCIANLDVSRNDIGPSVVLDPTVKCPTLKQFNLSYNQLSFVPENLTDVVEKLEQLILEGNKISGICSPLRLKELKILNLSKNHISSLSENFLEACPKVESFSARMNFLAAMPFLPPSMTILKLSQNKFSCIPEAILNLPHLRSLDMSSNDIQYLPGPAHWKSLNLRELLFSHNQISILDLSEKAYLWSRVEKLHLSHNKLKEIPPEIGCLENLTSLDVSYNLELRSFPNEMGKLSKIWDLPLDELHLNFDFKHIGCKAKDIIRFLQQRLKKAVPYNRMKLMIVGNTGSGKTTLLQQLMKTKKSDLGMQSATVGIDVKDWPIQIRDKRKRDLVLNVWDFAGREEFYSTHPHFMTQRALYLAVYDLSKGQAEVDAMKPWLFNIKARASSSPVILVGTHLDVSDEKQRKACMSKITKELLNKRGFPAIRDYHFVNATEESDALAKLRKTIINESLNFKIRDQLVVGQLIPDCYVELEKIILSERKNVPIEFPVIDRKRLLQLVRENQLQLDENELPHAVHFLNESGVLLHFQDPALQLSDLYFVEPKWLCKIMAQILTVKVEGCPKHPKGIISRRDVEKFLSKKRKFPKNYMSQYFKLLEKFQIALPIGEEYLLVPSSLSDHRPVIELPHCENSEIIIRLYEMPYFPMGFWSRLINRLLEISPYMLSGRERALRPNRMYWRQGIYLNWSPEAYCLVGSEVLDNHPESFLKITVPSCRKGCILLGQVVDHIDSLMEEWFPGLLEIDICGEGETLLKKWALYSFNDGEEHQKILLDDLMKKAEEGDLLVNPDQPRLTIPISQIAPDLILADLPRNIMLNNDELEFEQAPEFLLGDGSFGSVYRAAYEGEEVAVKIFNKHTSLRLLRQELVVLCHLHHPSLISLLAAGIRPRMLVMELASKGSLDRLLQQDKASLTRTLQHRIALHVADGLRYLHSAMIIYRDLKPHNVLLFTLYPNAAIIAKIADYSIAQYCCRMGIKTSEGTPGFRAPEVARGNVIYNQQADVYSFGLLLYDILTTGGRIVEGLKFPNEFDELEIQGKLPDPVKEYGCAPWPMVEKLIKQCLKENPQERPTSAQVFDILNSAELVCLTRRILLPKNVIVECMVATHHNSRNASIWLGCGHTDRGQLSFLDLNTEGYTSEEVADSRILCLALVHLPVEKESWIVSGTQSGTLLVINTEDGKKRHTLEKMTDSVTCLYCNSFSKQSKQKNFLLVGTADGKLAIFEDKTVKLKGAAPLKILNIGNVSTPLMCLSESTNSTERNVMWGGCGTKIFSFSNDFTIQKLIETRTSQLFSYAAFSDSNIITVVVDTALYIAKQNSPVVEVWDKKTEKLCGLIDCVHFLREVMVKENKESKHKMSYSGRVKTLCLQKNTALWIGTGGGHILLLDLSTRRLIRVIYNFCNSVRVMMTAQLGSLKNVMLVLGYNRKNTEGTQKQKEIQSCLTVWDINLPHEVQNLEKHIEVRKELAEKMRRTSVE
- test name: Inhibition of GST-tagged LRRK2 G2019S mutant (1326 to 2527 residues) (unknown origin) using peptide as substrate incubated for 15 mins in presence of ATP by immunoblotting analysis

compound	censoring sign	IC50, nM
CC1=C(C(=O)Nc2cc3cn[nH]c3cc2F)C(c2ccc(C(F)(F)F)cc2)CC(=O)N1 (stereo not given)	>	100000
Cc1cncc2cccc(S(=O)(=O)N3CCCNC[C@@H]3C)c12	=	150
CCn1c(-c2nonc2N)nc2cnc(Oc3cccc(NC(=O)c4ccc(OCCN5CCOCC5)cc4)c3)cc21 [GSK-269962A]	=	2300
O=S(=O)(NCCNC/C=C/c1ccc(Br)cc1)Nc1cccc2cnccc12	>	10000
O=S(=O)(c1cccc2cnccc12)N1CCCNCC1 [FASUDIL]	>	30000

----------
Item-by-item account of residual activity
- measurement target: Inhibitor of nuclear factor kappa-B kinase subunit epsilon (Homo sapiens) (UniProt Q14164)
- Sequence (Q14164 whole entry): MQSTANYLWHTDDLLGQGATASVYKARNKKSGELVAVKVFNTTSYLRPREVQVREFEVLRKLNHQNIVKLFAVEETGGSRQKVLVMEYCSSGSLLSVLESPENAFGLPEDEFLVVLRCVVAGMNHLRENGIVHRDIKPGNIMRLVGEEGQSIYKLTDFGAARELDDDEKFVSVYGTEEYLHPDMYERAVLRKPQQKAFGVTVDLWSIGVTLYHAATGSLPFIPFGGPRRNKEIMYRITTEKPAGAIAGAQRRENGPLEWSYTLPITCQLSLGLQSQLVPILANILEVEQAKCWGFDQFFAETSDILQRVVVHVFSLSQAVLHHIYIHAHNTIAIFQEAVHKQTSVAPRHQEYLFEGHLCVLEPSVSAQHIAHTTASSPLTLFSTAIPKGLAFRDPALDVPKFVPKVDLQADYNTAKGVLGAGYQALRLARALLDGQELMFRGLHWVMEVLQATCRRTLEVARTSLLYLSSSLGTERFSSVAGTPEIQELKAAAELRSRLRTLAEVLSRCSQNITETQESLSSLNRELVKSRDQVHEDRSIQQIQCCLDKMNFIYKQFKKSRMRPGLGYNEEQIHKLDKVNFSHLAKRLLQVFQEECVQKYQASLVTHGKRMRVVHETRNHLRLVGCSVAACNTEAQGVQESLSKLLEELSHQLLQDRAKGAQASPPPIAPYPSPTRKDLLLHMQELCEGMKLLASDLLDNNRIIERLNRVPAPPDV
- test name: Inhibition of IKKepsilon (unknown origin) at 1 uM incubated for 30 mins in presence of [gamma-33P]ATP by multidrop micro reagent based assay relative to control

compound	residual activity / %
CCn1c(-c2nonc2N)nc2cnc(Oc3cccc(NC(=O)c4ccc(OCCN5CCOCC5)cc4)c3)cc21 [GSK-269962A]	66
Cc1cncc2cccc(S(=O)(=O)N3CCCNC[C@@H]3C)c12	80
CC1=C(C(=O)Nc2cc3cn[nH]c3cc2F)C(c2ccc(C(F)(F)F)cc2)CC(=O)N1 (centres undefined)	109
CCN(CC)CCNC(=O)c1c(C)[nH]c(/C=C2\C(=O)Nc3ccc(F)cc32)c1C	63

----------
- measurement target: Misshapen-like kinase 1 (Homo sapiens) (UniProt Q8N4C8)
- test name: Inhibition of MINK1 (unknown origin) at 1 uM incubated for 30 mins in presence of [gamma-33P]ATP by multidrop micro reagent based assay relative to control
Item-by-item account of residual activity
assay readout: residual activity

molecule	assay readout	observed result
CC1=C(C(=O)Nc2cc3cn[nH]c3cc2F)C(c2ccc(C(F)(F)F)cc2)CC(=O)N1 (centres undefined)	residual activity	75%
CCn1c(-c2nonc2N)nc2cnc(Oc3cccc(NC(=O)c4ccc(OCCN5CCOCC5)cc4)c3)cc21 [GSK-269962A]	residual activity	70%
Cc1cncc2cccc(S(=O)(=O)N3CCCNC[C@@H]3C)c12	residual activity	104%
CCN(CC)CCNC(=O)c1c(C)[nH]c(/C=C2\C(=O)Nc3ccc(F)cc32)c1C	residual activity	8%

----------
Item-by-item account of residual activity
- measurement target: Rho-associated protein kinase 2 (Homo sapiens)
- test name: Inhibition of ROCK2 (unknown origin) at 1 uM incubated for 30 mins in presence of [gamma-33P]ATP by multidrop micro reagent based assay relative to control; values are per cent of control
assay readout: residual activity (%)

molecule	assay readout	observed result
Cc1cncc2cccc(S(=O)(=O)N3CCCNC[C@@H]3C)c12	residual activity	3
CCn1c(-c2nonc2N)nc2cnc(Oc3cccc(NC(=O)c4ccc(OCCN5CCOCC5)cc4)c3)cc21 [GSK-269962A]	residual activity	1
CC1=C(C(=O)Nc2cc3cn[nH]c3cc2F)C(c2ccc(C(F)(F)F)cc2)CC(=O)N1 (centres undefined)	residual activity	3
CCN(CC)CCNC(=O)c1c(C)[nH]c(/C=C2\C(=O)Nc3ccc(F)cc32)c1C	residual activity	67

----------
- measurement target: Aurora kinase B (Homo sapiens)
- test name: Inhibition of Aurora B kinase (unknown origin) at 1 uM incubated for 30 mins in presence of [gamma-33P]ATP by multidrop micro reagent based assay relative to control; values are per cent of control

molecule	units label	residual activity
Cc1cncc2cccc(S(=O)(=O)N3CCCNC[C@@H]3C)c12	%	11
CC1=C(C(=O)Nc2cc3cn[nH]c3cc2F)C(c2ccc(C(F)(F)F)cc2)CC(=O)N1 (centres undefined)	%	59
CCn1c(-c2nonc2N)nc2cnc(Oc3cccc(NC(=O)c4ccc(OCCN5CCOCC5)cc4)c3)cc21 [GSK-269962A]	%	36
CCN(CC)CCNC(=O)c1c(C)[nH]c(/C=C2\C(=O)Nc3ccc(F)cc32)c1C	%	29

----------
- measurement target: Rho-associated protein kinase 2 (Homo sapiens, UniProt O75116)
pIC50: −log10 of the molar value.

compound	pIC50
CC1=C(C(=O)Nc2cc3cn[nH]c3cc2F)C(c2ccc(C(F)(F)F)cc2)CC(=O)N1 (stereo unspecified)	7.20

----------
- measurement target: Serine/threonine-protein kinase N2 (Homo sapiens) (UniProt Q16513)
- Sequence (Q16513 whole entry, looked up): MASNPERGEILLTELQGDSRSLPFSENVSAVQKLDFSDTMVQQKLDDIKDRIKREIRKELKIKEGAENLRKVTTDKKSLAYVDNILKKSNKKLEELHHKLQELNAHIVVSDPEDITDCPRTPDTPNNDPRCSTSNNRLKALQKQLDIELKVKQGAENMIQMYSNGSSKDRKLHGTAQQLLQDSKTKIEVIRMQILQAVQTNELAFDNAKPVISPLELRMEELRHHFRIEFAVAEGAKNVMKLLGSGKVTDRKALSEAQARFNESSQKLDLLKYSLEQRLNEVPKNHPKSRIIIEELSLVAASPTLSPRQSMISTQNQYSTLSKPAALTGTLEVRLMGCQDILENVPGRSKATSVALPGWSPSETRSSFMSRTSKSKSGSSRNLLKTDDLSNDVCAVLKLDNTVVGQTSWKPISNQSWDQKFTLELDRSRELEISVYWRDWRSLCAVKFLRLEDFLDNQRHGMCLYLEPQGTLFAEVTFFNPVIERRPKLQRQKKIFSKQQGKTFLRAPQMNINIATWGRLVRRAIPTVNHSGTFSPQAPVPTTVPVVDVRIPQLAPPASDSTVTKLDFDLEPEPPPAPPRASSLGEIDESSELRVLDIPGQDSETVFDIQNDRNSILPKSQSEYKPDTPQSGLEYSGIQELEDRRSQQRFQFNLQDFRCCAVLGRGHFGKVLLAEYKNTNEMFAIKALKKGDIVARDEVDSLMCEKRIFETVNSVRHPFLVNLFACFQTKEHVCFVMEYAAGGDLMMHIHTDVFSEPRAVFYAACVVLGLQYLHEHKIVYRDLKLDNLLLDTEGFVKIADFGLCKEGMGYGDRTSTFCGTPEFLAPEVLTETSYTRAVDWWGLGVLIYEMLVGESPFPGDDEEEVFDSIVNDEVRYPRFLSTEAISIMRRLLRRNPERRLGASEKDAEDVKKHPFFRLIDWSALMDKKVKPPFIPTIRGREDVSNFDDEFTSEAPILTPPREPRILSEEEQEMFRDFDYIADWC
- test name: Inhibition of PRK2 (unknown origin) at 1 uM incubated for 30 mins in presence of [gamma-33P]ATP by multidrop micro reagent based assay relative to control; values are per cent of control

compound	residual activity
CCN(CC)CCNC(=O)c1c(C)[nH]c(/C=C2\C(=O)Nc3ccc(F)cc32)c1C	81%
CCn1c(-c2nonc2N)nc2cnc(Oc3cccc(NC(=O)c4ccc(OCCN5CCOCC5)cc4)c3)cc21 [GSK-269962A]	2%
CC1=C(C(=O)Nc2cc3cn[nH]c3cc2F)C(c2ccc(C(F)(F)F)cc2)CC(=O)N1 (centres undefined)	40%
Cc1cncc2cccc(S(=O)(=O)N3CCCNC[C@@H]3C)c12	70%
